Details: 298.15 K; 101.33 kPa; Liquid
Quantity measured: mass density (kg/m3)
Give bare numbers, in kg/m3.

Illustrative cases are given below, each with its answer.
| Record smiles | mass density [kg/m3] |
| --- | --- |
| CCCC(C)C | 649.78 |
| CCCCCCCCCCCC | 745.38 |
| CCCCCCCCCC | 726.31 |

Continue with the compound presented below.
# input compound: COC(C)(C)C ; wanted: its mass density
735.69

Where these numbers come from: the NIST ThermoML archive (doi:10.1016/j.jct.2004.05.006)
